Numbers sourced from ChEMBL document CHEMBL4765425.

System: Mus musculus
Assay: Anticonvulsant activity in Kunming mouse assessed as reduction in MES-induced seizure at 100 mg/kg, ip measured after 30 mins
Format: functional, organism-based
Activity calls are given as the source filed them. No cut-off for these calls is given here.
Lab note: assign the record to one of active, inactive

Illustrative cases are given below, each with its answer.
- Cc1ccc(CSc2nnc(COc3ccc4c(c3)CCC(=O)N4)o2)cc1: active
- CC(=O)Nc1ccc(OCc2nnc(SCc3cccc(Cl)c3)o2)cc1: inactive
- CCCCCSc1nnc(COc2ccc3c(c2)CCC(=O)N3)o1: active
- CCCCCCSc1nnc(COc2ccc(NC(C)=O)cc2)o1: active
- CC(=O)Nc1ccc(OCc2nnc(SCc3cccc(F)c3)o2)cc1: inactive

Prompt line: Entry CCCCCCSc1nnc(COc2ccc3c(c2)CCC(=O)N3)o1 : call = ?
Response line: active

###

Test system: Mus musculus
Test: Anticonvulsant activity in Kunming mouse assessed as reduction in MES-induced seizure at 100 mg/kg, ip measured after 30 mins
Assay type: functional, organism-based
Active and inactive are the calls of the source. No cut-off for these calls is given here.
Lab note: assign the record to one of active, inactive

Illustrative cases are given below, each with its answer.
* CCCCCSc1nnc(COc2ccc(-n3cnnc3)cc2)o1 | active
* CCCCCCSc1nnc(COc2ccc(-n3cnnc3)cc2)o1 | active
* CCCCCSc1nnc(COc2ccc(NC(C)=O)cc2)o1 | active
* CC(=O)Nc1ccc(OCc2nnc(SCc3ccc(Cl)cc3)o2)cc1 | inactive
* CCCCCCCCCSc1nnc(COc2ccc(NC(C)=O)cc2)o1 | inactive
* CC(=O)Nc1ccc(OCc2nnc(SCc3ccc(C(F)(F)F)cc3)o2)cc1 | active

Prompt line: Entry O=C1CCc2cc(OCc3nnc(SCc4ccc(C(F)(F)F)cc4)o3)ccc2N1 : call = ?
Response line: active

Prompt line: Entry O=C1CCc2cc(OCc3nnc(SCc4ccc(F)cc4)o3)ccc2N1 : call = ?
Response line: inactive

###

Test: Neurotoxicity in ip dosed Kunming mouse measured after 30 mins by rotarod test
Type: toxicity, organism-based
Settings: in vivo
property name: TD50 at 0.5 h

// solved cases for TD50 at 0.5 h follow
• CCCCCCSc1nnc(COc2ccc(-n3cnnc3)cc2)o1 = 385 mg/kg
• CCCCCCSc1nnc(COc2ccc(NC(C)=O)cc2)o1 = 420 mg/kg
• O=C1CCc2cc(OCc3nnc(SCc4ccc(C(F)(F)F)cc4)o3)ccc2N1 = 376 mg/kg
• CCCCCSc1nnc(COc2ccc(NC(C)=O)cc2)o1 = 389 mg/kg
• CCCCCSc1nnc(COc2ccc(-n3cnnc3)cc2)o1 = 421 mg/kg
• CCCCCSc1nnc(COc2ccc3c(c2)CCC(=O)N3)o1 = 575 mg/kg

Dear colleague, could you send me TD50 at 0.5 h for each of the items below? Thanks.
1. CCC1(C)CC(=O)NC1=O (stereo not drawn) [ETHOSUXIMIDE]
2. CCCCCCSc1nnc(COc2ccc3c(c2)CCC(=O)N3)o1

Response line:
1. 343 mg/kg
2. 466 mg/kg

###

Tested on: Mus musculus
Assay: Anticonvulsant activity in ip dosed Kunming mouse assessed as reduction in MES-induced seizure measured after 30 mins
Format: functional
Conditions: 0.5 h
Kindly supply the reported ED50 values for the records listed here.

// solved cases for ED50 follow
* CCCCCCSc1nnc(COc2ccc3c(c2)CCC(=O)N3)o1 | 10.4 mg/kg
* CCCCCCSc1nnc(COc2ccc(NC(C)=O)cc2)o1 | 20.9 mg/kg
* CCCCCSc1nnc(COc2ccc(NC(C)=O)cc2)o1 | 22.6 mg/kg
* NC(=O)N1c2ccccc2C=Cc2ccccc21 [CARBAMAZEPINE] | 11.8 mg/kg
* CCCCCSc1nnc(COc2ccc(-n3cnnc3)cc2)o1 | 18.7 mg/kg
* CCCCCCSc1nnc(COc2ccc(-n3cnnc3)cc2)o1 | 26.6 mg/kg

Dear colleague, could you send me ED50 for each of the items below? Thanks.
1. O=C1CCc2cc(OCc3nnc(SCc4ccc(C(F)(F)F)cc4)o3)ccc2N1
2. CCCCCSc1nnc(COc2ccc3c(c2)CCC(=O)N3)o1

Response line:
23.1 mg/kg
8.9 mg/kg

###

Experiment: Displacement of [3H]flunitrazepam from GABA-A receptor benzodiazepine site in mouse cerebellum synaptosomal membrane
Type: subcellular, Synaptosome
property name: IC50 (nM)
One number for each entry, in nM.

// solved cases for IC50 follow
- CCCCCCSc1nnc(COc2ccc(NC(C)=O)cc2)o1: 4120
- CN1C(=O)CN=C(c2ccccc2)c2cc(Cl)ccc21 [DIAZEPAM]: 42
- O=C1CCc2cc(OCc3nnc(SCc4ccc(C(F)(F)F)cc4)o3)ccc2N1: 5280

Dear colleague, could you send me IC50 for each of the items below? Thanks.
1. CCCCCSc1nnc(COc2ccc(NC(C)=O)cc2)o1
2. CCCCCSc1nnc(COc2ccc(-n3cnnc3)cc2)o1
3. CCCCCCSc1nnc(COc2ccc3c(c2)CCC(=O)N3)o1

Response line:
[1290, 3430, 880]

Dear colleague, could you send me IC50 for each of the items below? Thanks.
1. CCCCCCSc1nnc(COc2ccc(-n3cnnc3)cc2)o1
2. CCCCCSc1nnc(COc2ccc3c(c2)CCC(=O)N3)o1

Response line:
1: 9310; 2: 110
